Data origin, for the record: paper PMC5282889

target: Aβ (Homo sapiens, UniProt P05067); assay: Aβ fibrillogenesis, Thioflavin-T
Sequence (P05067 672-711 limits assumed): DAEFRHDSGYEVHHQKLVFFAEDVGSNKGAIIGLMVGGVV
Measurement name: EC50

Req: Provide only the value of recorded EC50 for `c1ccc2c(-c3nccc4c3[nH]c3ccccc34)cccc2c1`
Resp: ~110 µM
